Data credit: patent US20240270821A1

target or test system: human glucagon receptor (human) (UniProt P47871)
Sequence (P47871 26-477): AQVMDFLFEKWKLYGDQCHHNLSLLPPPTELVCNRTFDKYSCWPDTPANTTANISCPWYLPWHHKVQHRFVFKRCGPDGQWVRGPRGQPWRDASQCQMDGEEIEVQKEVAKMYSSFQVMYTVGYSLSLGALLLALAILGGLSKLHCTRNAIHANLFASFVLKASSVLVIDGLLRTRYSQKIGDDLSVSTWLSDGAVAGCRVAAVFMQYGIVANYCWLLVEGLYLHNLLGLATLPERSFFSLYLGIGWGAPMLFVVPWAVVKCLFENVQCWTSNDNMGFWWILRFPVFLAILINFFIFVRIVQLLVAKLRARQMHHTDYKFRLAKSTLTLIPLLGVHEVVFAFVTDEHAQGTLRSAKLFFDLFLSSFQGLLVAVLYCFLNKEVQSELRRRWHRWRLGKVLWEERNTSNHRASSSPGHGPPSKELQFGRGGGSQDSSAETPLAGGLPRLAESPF
assay explanation: cell-based or functional assay
Each entry below carries its recorded Relative cAMP EC50.

# binder, Relative cAMP EC50 (nM)
measured = [
    ("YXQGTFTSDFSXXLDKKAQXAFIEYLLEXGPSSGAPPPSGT (synthetic construct; SITE 2: note = 2-Aminoisobutyric Acid; SITE 12: note = L-ornithine; SITE 13: note = alpha-methyl-leucine; SITE 17: note = Lysine is chemically modified through conjugation of the epsilon-amino group of the Lysine side chain with (gamma-Glu)-(2-[2-(2-Amino-ethoxy)-ethoxy]-acetyl)) [Example 276]", 2.82),
    ("YXQGTXTSDXSIXLDKKAQXAFIEYLTEGGPSSGEPPPSGSEE (non-natural residues, C18 diacid acylation, C-terminal amide; synthetic construct; SITE 2: note = 2-Aminoisobutyric Acid; SITE 6: note = alpha-methyl-2-fluoro-L-phenylalanine; SITE 10: note = 3-(4-Pyridyl)-L-alanine; SITE 13: note = alpha-methyl-leucine; SITE 17: note = Lysine is chemically modified through conjugation of the epsilon-amino group of the Lysine) [Example 633]", 10.2),
    ("YXQGTXTSDXXIXLDXKAQXXFIEXLLEGGPSSGEPPPE (synthetic construct; SITE 2: note = 2-Aminoisobutyric Acid; SITE 6: note = alpha-methyl-2-fluoro-L-phenylalanine; SITE 10: note = 3-(4-Pyridyl)-L-alanine; SITE 11: note = alpha-methyl-L-serine; SITE 13: note = alpha-methyl-leucine; SITE 16: note = L-ornithine; SITE 17: note = Lysine is chemically mo) [Example 377]", 1.36),
]
